test system: MS2 coat protein; assay: apparent KD of MS2 coat protein; higher = weaker reporter binding; conditions: Eterna round: R107; input ligand: arginine 13.2 mM
Consider the following sequences and their measured apparent KD of MS2 coat protein readings.
RECORDED_ENDPOINT: apparent KD of MS2 coat protein (nM)

>>> recorded_number("ACGUAAUGCAGAAGGAGCGUCGAUCUCAUACAUGAGGAUCACCCAUGUUACAUGGUUGGACGACAGGUAGGUCGCUGAAGUACGA [#06 Exclusion - Arginine B]")
24.2
>>> recorded_number("AUAACAUGAGGAUCACCCAUGUAAGCUGAAGGAGCGCUGGAAACAGCAGGUAGGUCGCAGCAUGUUUCCACAUGGGUAGGAAACU [(M1)-(M2)-(Arg1)-(Arg2)-(A)'-(M)'-(A)''_Design8]")
42.4
>>> recorded_number("UGUACCAUGUCGGCCGCCACUUGAAAUAAACAAGAGGAUCACCCUUGUGACGUCAAAGACGUCUCAAGGACCGGGACAUGGUACU [TryBS Zipper #StaticStem #Zipper]")
168
>>> recorded_number("ACACGGGCAUGAGGAUCACCCAUGUAAUAACGAGGACCGGUACGGCCGCCACUCGUGCACCGUGACCUGUACGAAAAGUGCAGGA")
13.6
>>> recorded_number("GUAUCUAUGUGAAAUAGAUAUAUAACUGAAGGAGCGUCAUUAAGGACAGGUAGGUCGCAGAGCACCUGAGGAUCACCCAGGUAGG [Arg A SS s1]")
27
>>> recorded_number("CUGGACAUGAGGAUCACCCAUGUAAAUCCUCGAGGACCGGUACGGCCGCCACUCGAACGAGUGGCACGCGAGUGCGCACUCGCGU [aLa]")
26.9
>>> recorded_number("CUGGACAUGAGGAUCACCCAUGUAAAUCCUCGAGGACCGGUACGGCCGCCACUCGAACGAGUGGCGCGCGAGCGCGCGCUCGCGC [aJa]")
41.4
>>> recorded_number("CAAGAACAGCCAGAUCUUGGCAGCUGAGAAGGAGCGCGGGAAGCCGCAGGUAGGUCGCUCAGGAAUACAUGAGGAUCACCCAUGU [Beoror]")
19.8
>>> recorded_number("AGCGACAUGCGUGAUACCAGCUACAUGAGGAUCACCCAUGUCAGUAGGAAACUACUGUGUAGCCCUUGGCAGCACAGUGCAUGUC [Exclusion - Theophylline B (Freestyle 26)]")
12.3
>>> recorded_number("UGUAUGGACUGAAGGAGCGGGUUGAUAACUUGAGGAUCACCCAGGUAAAAGGCGAAAGCCACCCAGGUAGGUCGCAGUCCAUACU")
52.6
>>> recorded_number("CGUUGGUGUGGAGACAUAUUGAUGACUGAAGGAGCGGGAAUAAACCCAGGUAGGUCGCAGAGAUCCACAUGAGGAUCACCCAUGU [!0.R]")
26.3
>>> recorded_number("GCUUGGGUCGCACGGCCCUGGCGGUGCGAUACCAGCACGGUAACGUGCCCUUGGCAGCGCACAUGAGGAUCACCCAUGUGGUGCG [#1 Exclusion - Theophylline A Attempt #23 (HarryS)]")
9.42
